B1: ZNF449 (parent)
chain: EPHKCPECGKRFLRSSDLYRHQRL

- Variants of: B1
- Test protocol: protein stability index of a GFP-peptide fusion (GPS, HEK-293T) (PSI 1-6); higher = more stable;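 further: lentivirally expressed fusions sorted by FACS into six bins by GFP to DsRed ratio, PSI derived from sequencing read proportions per bin multiplied by bin number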
- Experimental conditions: c terminus: a fixed tail appended
Below, each entry is listed with its recorded protein stability index.

{"columns": ["Var", "protein stability index"],
 "data": [
  ["R23N", 4.4],
  ["S16T", 3.94],
  ["E7C", 4.37],
  ["Y19D", 4.68],
  ["R23C", 5.02],
  ["P2K", 3.57],
  ["E1S", 2.73],
  ["E7P", 2.21],
  ["R23T", 4.01],
  ["R23S", 4.11],
  ["S16Q", 4.27],
  ["E1N", 2.83],
  ["F12E", 2.34],
  ["R14D", 4.29],
  ["S16E", 4.99],
  ["C8T", 3.36],
  ["S15I", 3.27],
  ["L13G", 3.88],
  ["H3R", 3.29],
  ["E7T", 3.82],
  ["L24M", 3.94],
  ["K4R", 3.71],
  ["L24K", 4]
]}
